Entries annotated with measured Inhibition
- System: Plasmodium falciparum
- assay: GSK_TCMDC: Inhibition of Plasmodium falciparum Dd2 in whole red blood cells, using parasite LDH activity as an index of growth. Test compounds present at 2uM
- Type: functional
Write the figure, then the unit, nothing else.

Specify Inhibition for C[C@@H]([C@@H](CCCCc1ccccc1)C(=O)N[C@H](C(=O)Nc1cccnc1)C(C)(C)C)N(O)C=O , system Plasmodium falciparum.
98%

====

Listed here are compounds together with their documented Inhibition.
- Test system: HepG2
- assay: GSK_TCMDC: Percent inhibition of human HepG2 cell line. Test compounds present at 10uM.
- Assay type: functional
Answer with the value and then the unit.

Answered examples (5):
| compound | target desc | Inhibition |
| --- | --- | --- |
| NC(=O)COc1c(C2CCN(CCN3CCC(CNC(=O)c4ccc(-c5ccc(C(F)(F)F)cc5)cc4)CC3)CC2)ccc2c1CCCC2 | HepG2 | 32% |
| COc1ccc2c(NN=Cc3cccc(C)n3)ccnc2c1 | HepG2 | 0% |
| O=C(NCC1CCN(CCN2CCC(c3cn(CCO)c4ccccc34)CC2)CC1)c1ccc(-c2ccc(C(F)(F)F)cc2)cc1 | HepG2 | 100% |
| COc1cc2nc(NCCCO)nc(Nc3ccc(Oc4ccccc4)cc3)c2cc1OC | HepG2 | 24% |
| CCOC(=O)C1=C(C)N=c2sc(=Cc3cc(Cl)ccc3O)c(=O)n2C1c1cc(OC)c(OC)cc1Br (stereo unspecified) | HepG2 | 6% |

State, for HepG2, measured Inhibition of the compound listed here: N#Cc1ccc(N(CCOc2ccc(Cl)c(Cl)c2)Cc2ccccc2C(F)(F)F)cc1C(F)(F)F
13%

Give Inhibition for this entry on HepG2: O=C(NCCN1CCCC1)c1cccc(-c2ccc(-c3nc4cc(F)ccc4[nH]3)cc2)c1
33%

Check HepG2 data and give Inhibition for O=C(Nc1cccc(Oc2ccccc2)c1)N[C@H]1CCN(Cc2ccc(OCCCN3CCCCC3)cc2)C1 .
94%

Output reported Inhibition of the compound c1ccc2cc3c(NCCN4CCOCC4)ccnc3cc2c1 on HepG2.
0%

Please respond with reported Inhibition (system HepG2) for Cl.N=c1n(CCN2CCCCC2)c2ccccc2n1CC(O)c1cccc(Br)c1 (stereo unspecified) .
25%

Tell me Inhibition of NC(=O)c1ccsc1NC(=O)CNC(c1ccc(F)cc1)c1cccs1 (stereo unspecified) when tested on HepG2.
31%

====

- Test system: Plasmodium falciparum
- assay: GSK_TCMDC: Inhibition of Plasmodium falciparum 3D7 in whole red blood cells, using parasite LDH activity as an index of growth. Test compounds present at 2uM
- Type: functional
quantity measured: Inhibition (%)
Write it as a number; the unit % goes unstated.

Given the compound Cl.N=C(N)c1ccc(-c2cc3ccc(C(=N)N)cc3[nH]2)cc1 , write its reported Inhibition.
99

For the compound Brc1ccc(Nc2nc3ccccc3nc2Nc2ccc(Br)cc2)cc1 , give its measured Inhibition value.
100

====

- Tested on: Plasmodium falciparum
- assay: GSK_TCMDC: Inhibition of Plasmodium falciparum Dd2 in whole red blood cells, using parasite LDH activity as an index of growth. Test compounds present at 2uM
- Format: functional
Field 'label' (enum: 1 / 0). Set to 1 when Inhibition is strictly under 50%; else 0.

Below are worked cases with known answers.
| compound | label value |
| --- | --- |
| COc1ccc(-c2ccccc2CNC2Cc3ccccc3C2)cc1S(=O)(=O)NCCN1CCCC1.O=C(O)C(F)(F)F | 1 |
| COc1cc(CCCOc2c(N)nc(N)nc2N)cc(OC)c1OC | 1 |
| Cc1cc(-c2cc(-c3ccc(OCCN(C)C)cc3)[nH]c2-c2ccc3c(c2)CCC3=NO)ccn1 | 0 |
| CC(C)c1ccc(NS(=O)(=O)c2cccc(C(=O)NC3CCN(CC4CCCCC4)CC3)c2)cc1.O=C(O)C(F)(F)F | 0 |
| Cc1cc2nc(-c3ccc(/C=C/C(=O)NCCCc4ccccc4)cc3)[nH]c2cc1C | 1 |
| CN1CCN(c2ccnc3ccc(NC(=O)Cc4ccc5ccccc5c4)cc23)CC1 | 0 |

is_below(Inhibition, 50%) for O=[N+]([O-])c1ccc(C2=NN(S(=O)(=O)c3c(Cl)cc(Cl)cc3Cl)CCCC2)cc1 ?
0

is_below(Inhibition, 50%) for Cc1cc(NC(=O)NCCN2CCC(NS(=O)(=O)c3ccccc3Cl)C2)c2ccccc2n1 (stereo not given) ?
1

Say whether its Inhibition is strictly beneath 50%. Entry: O=C(Nc1cccc(F)c1)NC1CCN(CCCCCNC(=O)C2CC2c2ccc(Cl)c(Cl)c2)CC1 (stereo not given)
1

Identify whether the compound CC(Oc1ccc(Cl)cc1Cl)c1nc(-c2ccc(NC(=O)c3ccco3)cc2)no1 (stereo not given) records Inhibition below 50%.
0

====

- Test system: HepG2
- assay: GSK_TCMDC: Percent inhibition of human HepG2 cell line. Test compounds present at 10uM.
- Type: functional
We'd kindly ask you to apply these Inhibition classes: lo = under 9%, mid = from 9% up to 30%, hi = 30% and over

Example results:
| compound | label value |
| --- | --- |
| C[C@@H]([C@@H](CCCc1ccc(Cl)cc1)C(=O)N[C@H](C(=O)Nc1cccnc1)C(C)(C)C)N(O)C=O | lo |
| O=C(Nc1ccccc1O)c1ccc(S(=O)(=O)c2ccc(Cl)cc2)cc1 | mid |
| Cc1cccc(C(=O)Nc2ccnc(N(C)CCCN(C)Cc3cccc(O)c3)c2)c1.O=C(O)C(F)(F)F | mid |
| CCOc1cc(C(=O)NC2CC(C)(C)NC(C)(C)C2)ccc1-c1cc2cc(Cl)c(Cl)cc2[nH]1 | hi |

Which category does the recorded Inhibition put CC(C)(C)OC(=O)Cn1cnc2cc(NC(=O)c3cc([N+](=O)[O-])cc([N+](=O)[O-])c3)ccc21 in?
mid

Assign a bin to O=C(/C=C/c1ccc(Cl)c(Cl)c1)N1CCN(C(=O)Nc2ccc(C(F)(F)F)cc2)CC1
hi

Hey, which category is CCC1CN(S(=O)(=O)c2ccc3c(c2)NC(=O)CC(=O)N3)c2cc(Cl)ccc2O1 (stereo not given) in, do you know?
lo

Band for Cc1cc(N[C@@H](Cc2ccccc2)C(=O)NCc2cccs2)nc(NCCc2cccnc2)n1.O=C(O)C(F)(F)F ?
mid

Which bin, given its Inhibition, does CC(C)c1ccc(-c2noc(SCC(=O)N3CCCCC3C)n2)cc1 (stereo not given) occupy?
mid

// return the class label for CSc1cccc(Nc2nc3ccc(S(=O)(=O)NC(C)C(C)C)cc3n2[C@H](C)C(C)(C)C)c1 (stereo not given in full)
lo

Please let me know in which category the item CCCCNCc1ccc(-c2nc(CN(CCCN3CCN(C)CC3)C(=O)Nc3cccc(Cl)c3)cs2)cc1.O=C(O)C(F)(F)F belongs.
hi

// bin(item) where item = COc1ccccc1C1CCN(C2CCC(NC(=O)/C=C/c3ccc4c(c3)OC(F)(F)O4)CC2)CC1 (stereo not given)
hi

Bin? COc1ccc2ncc(Cl)c([C@H](O)CN3CCC(NCc4cc5c(cn4)OCCO5)CC3)c2c1.Cl
mid

Kindly identify the class of O=C1NC(C(=O)Nc2ccccc2)C(c2ccccc2)S1 (stereo not given) .
lo

====

- Test system: Plasmodium falciparum
- assay: GSK_TCMDC: Inhibition of Plasmodium falciparum 3D7 in whole red blood cells, using parasite LDH activity as an index of growth. Test compounds present at 2uM
- Type: functional
quantity measured: Inhibition (%)
Hi! Could you send only the number? It should be in %, unit omitted.

Examples with their reported Inhibition follow.
| compound | Inhibition / % |
| --- | --- |
| O=C(Nc1c(F)cccc1F)c1cccc(-c2nn3ccccc3c2-c2ccnc(Nc3cccc(-c4cnco4)c3)n2)c1 | 95 |
| COc1ccc2ccccc2c1C=NN=c1cc(C)[nH]c2cc(C(F)(F)F)ccc12 | 92 |
| COc1ccccc1CCNC(=O)c1cnc(N2CCN(c3ccncc3)CC2)c(Cl)c1.O=C(O)C(F)(F)F | 98 |
| COc1ccc2nccc([C@@H](O)CN3CCC(NC(=O)C(=Cc4ccc(Cl)cc4Cl)c4ccc(-c5ccccc5)cc4)CC3)c2c1 | 100 |
| COc1cc2c(cc1OCCN1CCC(N3CCCCC3)CC1)N(C(=O)/C=C/c1ccccc1OC(F)(F)F)CC2.Cl | 100 |
| O=C(CC(=O)Nc1cc(Cl)cc(Cl)c1)Nc1cc(Cl)cc(Cl)c1 | 95 |

Return Inhibition for the following compound: Cc1nc(-c2ccncc2)sc1C(=O)Nc1ccc(Cl)cc1C(=O)Nc1ccc(Cl)cc1
98

Name the recorded Inhibition of the compound listed here: CCn1c(-c2nonc2N)nc2c(-c3ccc(CO)o3)ncc(OCCCN)c21.O=C(O)C(F)(F)F
93

Consider the compound Cc1cc(N2CCN(C(=O)OC(C)(C)C)CC2)ccc1N . State its measured Inhibition.
92

Give a short answer stating reported Inhibition for CCN(c1ccc(O)c(CN2CCCCC2)c1)c1ccc([N+](=O)[O-])cn1.Cl .
94

Please report Inhibition for the following compound: CCN1CCC(N(CCCCCCc2ccc(C(F)(F)F)cc2)C(=O)Cn2c(CCc3cccc(F)c3F)cc(=O)c3ccccc32)CC1.O=C(O)C(O)C(O)C(=O)O
88

Output Inhibition of COc1ccccc1N1CCN(CCCCNC(=O)c2ccc(NC(=O)c3ccc(C(F)(F)F)cc3)cc2)CC1
100

Return Inhibition (reported value) for this compound: COc1cc2nc(N3CCC(C(N)=O)CC3)nc(NCc3ccccc3)c2cc1OC
100

Identify Inhibition associated with the compound O=C(NCCc1ccc(Cl)c(Cl)c1)[C@@H]1CCCN1C(=O)c1ccc(O)c(-c2cccc(C(F)(F)F)c2)c1
97

Supply recorded Inhibition for O=C(Nc1cccc(CCNCc2ccccc2)c1)Nc1cccc2ccccc12.O=C(O)C(F)(F)F here.
100

State its Inhibition: Cc1cc(NCC(C)C)c2[nH]nc(-c3ccccc3)c2n1
99

Find the measured Inhibition of N#Cc1ccc(N/C(=N\c2ccccc2Br)N(C2CCCCC2)C2CCCCC2)c(O)c1 and report it.
99

Hello, please tell me recorded Inhibition for this one: Cc1cccn2c(=O)c3cc(C(=O)NC4CCCCC4)c(=N)n(CCCn4ccnc4)c3nc12
100

Fill in Inhibition for record Cl.c1ccc(-c2cc(NCCCCCCCCNc3cc(-c4ccccc4)nc4ccccc34)c3ccccc3n2)cc1
100

Output measured Inhibition for this item: Cc1cc(N[C@@H](CC(C)C)C(=O)NCCOc2ccccc2)nc(NCCc2ccccc2)n1.O=C(O)C(F)(F)F
94

Report Inhibition for COCCN(C(=O)Cc1cccs1)C(C(=O)NCc1ccc(OC)cc1)c1ccc(C(C)C)cc1 (stereo not drawn)
96

Return reported Inhibition. Input compound: COc1ccccc1N1CCN(Cc2c(O)ccc3cc(Br)ccc23)CC1
89

Given COc1ccc2nc3cc(Cl)ccc3c(NCCCCCCNc3c4ccc(Cl)cc4nc4ccc(OC)cc34)c2c1.Cl.Cl.Cl.Cl , respond with its Inhibition.
96
